System: 786-O
measurement.description: Euclidean distance of Cell Painting phenotypic profile (signed KS, 77 features) to DMSO centroid (dimensionless distance); 5 or 10 uM (library dependent); higher = stronger phenotypic change vs DMSO (phenoactivity)
test.parameters: 48 h
Please enter Yes where Euclidean distance is greater than or equal to 1, and No where it is lower.

| compound | class |
| --- | --- |
| Cc1cc(C)cc(OCC2CNC(=O)O2)c1 (stereo not given) | No |
| Cc1cnc(Nc2ccc(OCCN3CCCC3)cc2)nc1Nc1cccc(S(=O)(=O)NC(C)(C)C)c1 | Yes |
| COc1cc(Nc2nc3ccccc3nc2NS(=O)(=O)c2ccc(NC(=O)c3ccc(C)c(OC)c3)cc2)cc(OC)c1 | No |
| O=C(O)C1(c2ccc(-c3ccc(Cl)c(Cl)c3)c(F)c2)CC1 | No |
| C[N+](C)(C)CCOC(N)=O | Yes |
